The measured values listed here are drawn from patent US5998596A.

- Tested on: MAP kinase
- ASSAY_PROTOCOL: inhibition
- APPLIED_CONDITIONS: PS, two linkages at each of 5' and 3' ends, rest phosphodiester; 30 C
ATTRIBUTE_MEASURED: IC50

Task: Field request: IC50 | item: GTCCACCATGGCGCGGCCGGC [ODN1 (BCR-AS), phosphorothioate capped]
Output: > 100 µM
